METRIC: melting point

The cases that follow already have their melting point on record.
CS(=O)(=O)c1ccc(-c2ccc(=O)n(Cc3ccc(Cl)cc3)c2)cc1: 199 to 200 °C
Cn1ccc2cc(-c3ccc(=O)n(Cc4ccc(Cl)cc4)c3)ccc21: 144 to 147 °C
O=c1ccc(-c2cnn(Cc3ccccc3)c2)cn1Cc1ccc(Cl)cc1: 140 to 144 °C

Record summary for COc1ccc(-c2ccc(=O)n(Cc3ccc(C)cc3)c2)cc1 : reported melting point = 123 to 124 °C

###

METRIC: melting point (°C)

The cases that follow already have their melting point on record.
CC(C)(C)c1ccc(-c2ccc(=O)n(Cc3ccccc3)c2)cc1 [1-05]: 145
Cc1cc(COc2ccc(-c3ccc(=O)n(Cc4ccc(Cl)cc4F)c3)cc2)no1 [6-63]: 135
COc1ccc(-c2ccc(=O)n(Cc3ccccc3C)c2)cc1 [4-05]: 122
Cc1ccc(-c2ccc(=O)n(Cc3ccc(Cl)cc3)c2)nc1 [2-61]: 135
O=c1ccc(-c2cc(F)cc(F)c2)cn1Cc1ccccc1 [1-09]: 98

(P) COc1ccc(-c2ccc(=O)n(Cc3ccc(Cl)cc3F)c2)cc1C [6-28]
(Q) COc1ccc(-c2ccc(=O)n(Cc3ccc(Cl)cc3)c2)cc1N [2-37]
(R) COc1ccc(-c2ccc(=O)n(Cc3cccc(F)c3F)c2)cc1 [4-13]
Sort the 3 compounds by melting point; largest first, smallest last. Reply format: the labels, ordered as requested.
Q, P, R
(Q: 175 °C, P: 104 °C, R: 71 °C)
